Consider the following compounds and their measured TGI readings.
# Test system: M14 melanoma
# method notes: NCI tumour cell line growth inhibition, 48 h

M14 melanoma / TGI / COc1ccc(-c2c(/C=N/OCC(=O)O)c3sc4ccccc4n3c2/C=N/OCC(=O)O)cc1 : value? > 50 µM

And what about the compound COc1ccc(-c2nc(-c3cnccn3)n(C/C=C/c3ccccc3)n2)cc1 ? > 100 µM

And what about the compound CC(=O)OC1C2CCC3CC2C2(SCCS2)C31 (stereo unspecified) ? > 100 µM

And what about the compound C[C@@H]1CC2(C[C@@H](C)C3[C@@H](CC4(C)CCCC5C6=CC(O)(CC[C@]34C)OC6=CC(=O)OC5(C)C)O2)OC1=O (stereo partly specified) ? > 100 µM

And what about the compound N#Cc1nc(CN2C(=O)c3ccccc3C2=O)oc1N ? > 100 µM

And what about the compound COc1ccc(OCC(=O)O)c2c1CCC(C)C2=O (stereo unspecified) ? > 100 µM
